Tested on: FRTL-5 cells
experimentNotes: Neutral red uptake viability assay, FRTL-5
conditionInfo: read-out: NR IC20 FRTL-5, mean±SD, 2 h exposure
quantityMeasured: IC20
Enter the number, and then the unit.

Qu. Can you look up IC20 on FRTL-5 cells for CC(C)(c1cc(Br)c(O)c(Br)c1)c1cc(Br)c(O)c(Br)c1 [TBBPA, Tetrabromobisphenol A] ?
Ans. 33.4 µM

----------
System: FRTL-5 cells
experimentNotes: Neutral red uptake viability assay, FRTL-5
conditionInfo: mean±SD, 2 h exposure
quantityMeasured: NR IC20 FRTL-5

Known NR IC20 FRTL-5 results, listed for orientation:
O=P(Oc1ccccc1)(Oc1ccccc1)Oc1ccccc1 [TPP, Triphenyl phosphate] :: 92.6 ±24.1 / n.e.
S=C1NCCN1 :: n.e./ n.e.
NC(Cc1cc(I)c(Oc2cc(I)c(O)c(I)c2)c(I)c1)C(=O)O (centres unmarked) :: n.e. / n.e.
N[C@@H](Cc1cc(I)c(Oc2ccc(O)c(I)c2)c(I)c1)C(=O)O :: n.e. / n.e.
CC1(C)S[C@@H]2[C@H](NC(=O)[C@H](N)c3ccccc3)C(=O)N2[C@H]1C(=O)O [AMP, Ampicillin, reference compound] :: n.e./ n.e.

Qu. Which value of NR IC20 FRTL-5 has been reported for CCC(Cc1c(I)cc(I)c(N)c1I)C(=O)O (centres unmarked) [IOP, Iopanoic acid, reference compound] in the records?
Ans. n.e. / n.e.

Qu. I'd like to know its NR IC20 FRTL-5. The compound in question is Cn1cc[nH]c1=S [MMI, Methimazole, reference compound]
Ans. n.e. / n.e.

Qu. What value of NR IC20 FRTL-5 has been recorded for this entry: O=C(O)c1ccccc1O
Ans. n.e. / n.e.

----------
Tested on: FRTL-5 cells
experimentNotes: Neutral red uptake viability assay, FRTL-5
conditionInfo: mean±SD, 2 h exposure
quantityMeasured: NR IC20 FRTL-5

Answered examples (5):
O=S(=O)(O)C(F)(F)C(F)(F)C(F)(F)C(F)(F)C(F)(F)C(F)(F)C(F)(F)C(F)(F)F [PFOS, Perfluorooctane sulfonate] :: n.e.
O=C(O)C(F)(F)C(F)(F)C(F)(F)C(F)(F)C(F)(F)C(F)(F)C(F)(F)F [PFOA, Perfluorooctanoic acid] :: n.e. / n.e.
CCCc1cc(=O)[nH]c(=S)[nH]1 [PTU, 6-Propylthiouracil, reference compound] :: n.e. / n.e.
COc1ccc(C(c2ccc(OC)cc2)C(Cl)(Cl)Cl)cc1 [MET, Methoxychlor, reference compound] :: 218±4.3 / n.e.
Oc1cccc(O)c1 [RSC, Resorcinol] :: 4709.5 ±562 / n.e.

Please find the next molecule below.
Qu. Which value of NR IC20 FRTL-5 has been reported for O=C(c1ccc(O)cc1O)c1ccc(O)cc1O [BP2, 2,2′-4,4′-Tetrahydroxy Benzophenone] in the records?
Ans. n.e. / n.e.

----------
experimentNotes: in vitro
conditionInfo: human
quantityMeasured: IC20 at 2 h (µM)
Give your result in µM as a bare value.

Qu. Dear colleague, I am looking for the recorded IC20 at 2 h of the following molecule: CCCCOC(=O)c1ccccc1C(=O)OCCCC [DBP, Dibutylphthalate]
Ans. 42

----------
testedTarget: human NIS (Homo sapiens)
Sequence (Q92911 whole entry): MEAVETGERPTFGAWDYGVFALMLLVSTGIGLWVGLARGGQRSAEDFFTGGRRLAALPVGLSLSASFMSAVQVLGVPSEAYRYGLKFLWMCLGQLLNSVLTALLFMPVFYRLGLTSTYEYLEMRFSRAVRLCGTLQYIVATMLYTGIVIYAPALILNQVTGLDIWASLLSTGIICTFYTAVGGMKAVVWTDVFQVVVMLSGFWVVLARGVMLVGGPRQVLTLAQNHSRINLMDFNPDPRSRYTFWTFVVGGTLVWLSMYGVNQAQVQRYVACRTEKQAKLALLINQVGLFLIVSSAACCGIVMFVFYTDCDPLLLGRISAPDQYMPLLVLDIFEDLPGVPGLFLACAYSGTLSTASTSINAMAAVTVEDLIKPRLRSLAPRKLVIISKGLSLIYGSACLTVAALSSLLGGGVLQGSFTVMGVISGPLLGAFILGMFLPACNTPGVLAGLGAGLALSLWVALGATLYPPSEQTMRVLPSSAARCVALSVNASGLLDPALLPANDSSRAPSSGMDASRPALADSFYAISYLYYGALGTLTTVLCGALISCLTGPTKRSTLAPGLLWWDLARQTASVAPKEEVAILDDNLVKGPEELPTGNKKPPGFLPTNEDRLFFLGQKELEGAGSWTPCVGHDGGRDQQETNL
experimentNotes: NIS-inhibition assay (iodide uptake, Sandell–Kolthoff reaction) on HEK293T NIS C
Format: cell-based
Set-up: host or cells: HEK293T (lentiviral transduction, puromycin selection, GFP sorting; lines NIS 02 and NIS C)
quantityMeasured: IC50
Please don't drop the unit; write it after the number.

Qu. Given the entry CCOc1cc(C(C)(C)C)ccc1C1COC(c2c(F)cccc2F)=N1 (centres unmarked) [ETX, Etoxazole, reference compound] , report its measured IC50.
Ans. 11.7 µM

Qu. // IC50 lookup, key: Oc1cc(Cl)ccc1Oc1ccc(Cl)cc1Cl
Ans. 34.8 µM
